# method: protein stability index of a GFP-peptide fusion (yeast GPS) (PSI 1-4); higher = more stable; sorted into four equal gates, so the index is relative within each strain
# condition: ubr1∆
Categories are assigned from the measured protein stability index using these intervals: group A (below 2), group B (2 to below 3), group C (3 or more)

Class label required: TFPVGRVHRLLRRGNYA [HTA1]
group B

In plain terms, what class is TPSTNEPYARVSGDLNP [FAS1] ?
group B

Please classify: KYDRILKEVPTYRYVSV [RPS25A]
group B

// bin(item) where item = IELLSYLVEAPWNDDYP [YML103C/NUP188]
group B

// bin(item) where item = YLEENKSDSQYRFYEYI [MED1]
group C

Lab log: YPLPKFPTTSHESLVTT [MED8] — assign protein stability index category
group A

Dear colleague, I would appreciate it if you could identify the bin for GSSSIIYYDSYIHLAYS [SSN2] and reply at your convenience.
group B

Class? Entry: LLLITHHSWSQSDLEII [ARP9]
group A

Into which category would you place SVIVDSKVTVPPSKHST [ESC2] ?
group B

Which bin, given its protein stability index, does EAAAAEEGEEEEVKEEV [RPS0B] occupy?
group C
